assay info: In vivo localization (biodistribution) in athymic female nude mice bearing subcutaneous MCF-7 tumor xenografts
Set-up: species or system athymic female NCR-Nu Mice
condition summary: mouse, uterus, sc; Uteri, 2 hours, tail vein, subcutaneous MCF-7, mean, n = 5; read-out: Percent Injected Dose/Gram, uteri
Method: In vivo localization of 11β-ethyl-17α-(Z)-[^125 I](iodovinyl)estra-3,17β-diol (5) and a control compound 16α-[^125 I]iodovinyl-3,17β-estradiol (commercially available from DuPont New England Nuclear, MA) was determined in athymic female NCR-Nu Mice (purchased from Simonsen Laboratories, Gilroy, Calif.) bearing subcutaneous MCF-7(ER+) breast tumor xenografts. […]
recorded endpoint: tissue uptake at 2 h (%ID/g)
Reply with just the number (in %ID/g).

IN: Respond only with tissue uptake at 2 h recorded for CC[C@H]1C[C@@]2(C)[C@@H](CC[C@@]2(O)/C=C\[125I])[C@@H]2CCc3cc(O)ccc3[C@@H]12 [Compound 5]
OUT: 4.66

====

assay info: In vivo localization (biodistribution) in athymic female nude mice bearing subcutaneous MCF-7 tumor xenografts
Parameters: species or system athymic female NCR-Nu Mice
condition summary: mouse, sc; Blood, 10-12 hours, tail vein, subcutaneous MCF-7, mean, n = 5; read-out: Percent Injected Dose/Gram, blood
recorded endpoint: tissue uptake (%ID/g)
Reply with just the number (in %ID/g).

IN: Respond only with tissue uptake recorded for CC[C@H]1C[C@@]2(C)[C@@H](CC[C@@]2(O)/C=C\[125I])[C@@H]2CCc3cc(O)ccc3[C@@H]12
OUT: 0.37

====

assay info: In vivo localization (biodistribution) in athymic female nude mice bearing intraperitoneal MCF-7 tumors
Set-up: species or system athymic female NCR-Nu Mice
condition summary: mouse, in vivo, ip, Fat, 2 hours, tail vein, intraperitoneal MCF-7, mean, n = 5; read-out: Percent Injected Dose/Gram, fat
recorded endpoint: tissue uptake at 2 h (%ID/g)
Reply with just the number (in %ID/g).

IN: Respond only with tissue uptake at 2 h recorded for CC[C@H]1C[C@@]2(C)[C@@H](CC[C@@]2(O)/C=C\[125I])[C@@H]2CCc3cc(O)ccc3[C@@H]12
OUT: 3.1

====

assay info: In vivo localization (biodistribution) in athymic female nude mice bearing subcutaneous MCF-7 tumor xenografts
Set-up: species or system athymic female NCR-Nu Mice
condition summary: mouse, sc; Spleen, 2 hours, tail vein, subcutaneous MCF-7, mean, n = 5; read-out: Percent Injected Dose/Gram, spleen
Method: In vivo localization of 11β-ethyl-17α-(Z)-[^125 I](iodovinyl)estra-3,17β-diol (5) and a control compound 16α-[^125 I]iodovinyl-3,17β-estradiol (commercially available from DuPont New England Nuclear, MA) was determined in athymic female NCR-Nu Mice (purchased from Simonsen Laboratories, Gilroy, Calif.) bearing subcutaneous MCF-7(ER+) breast tumor xenografts. […]
recorded endpoint: tissue uptake at 2 h (%ID/g)
Reply with just the number (in %ID/g).

IN: Respond only with tissue uptake at 2 h recorded for CC[C@H]1C[C@@]2(C)[C@@H](CC[C@@]2(O)/C=C\[125I])[C@@H]2CCc3cc(O)ccc3[C@@H]12 [Compound 5]
OUT: 1.26

====

assay info: In vivo localization (biodistribution) in athymic female nude mice bearing subcutaneous MCF-7 tumor xenografts
Set-up: species or system athymic female NCR-Nu Mice
condition summary: mouse, sc; Blood, 48 hours, tail vein, subcutaneous MCF-7, mean, n = 5; read-out: Percent Injected Dose/Gram, blood
recorded endpoint: tissue uptake at 48 h (%ID/g)
Reply with just the number (in %ID/g).

IN: Respond only with tissue uptake at 48 h recorded for CC[C@H]1C[C@@]2(C)[C@@H](CC[C@@]2(O)/C=C\[125I])[C@@H]2CCc3cc(O)ccc3[C@@H]12
OUT: 0.03
